# runParameters: 100.0 µM
# Lookup of reported relative solubility at 100 uM keyed by entry
valueKind: relative solubility at 100 uM

>>> readoutvalue("Cc1ccncc1NC(=O)CCNc1ccc(S(N)(=O)=O)cc1")
1
>>> readoutvalue("O=C(Cc1cccnc1)Nc1cc(Cl)ccc1O")
0.98
>>> readoutvalue("CS(=O)(=O)NCCc1cccc(O)c1")
1
>>> readoutvalue("O=C(c1cc(=O)[nH]c2ccccc12)N1CCN(c2ccccc2F)CC1")
0.99
>>> readoutvalue("CCc1nnnn1-c1ccccc1NC(=O)C1(c2cncc(Br)c2)CC1")
1
>>> readoutvalue("Cc1cc(C)c(C)c(S(=O)(=O)N2CCN(C(=O)c3cc[nH]c(=O)c3)CC2)c1C")
0.98
>>> readoutvalue("O=C(NCc1ccccc1OCCO)C(=O)N[C@H]1C[C@H]1C1CCOCC1 (stereo in doubt)")
1
>>> readoutvalue("CCC(CC)C(=O)C(C#N)C(=O)Nc1ccc(F)cc1 (configuration not stated)")
1
>>> readoutvalue("CCC(C)(C)CCN(Cc1ccsc1)C(=O)Cn1nnc2ccccc21")
0.73
>>> readoutvalue("NS(=O)(=O)c1ccc2c(c1)CN(CC1CCN(C(=O)CCl)CC1)CC2")
1
>>> readoutvalue("CCc1ccccc1Nc1nc(N)nc(CSc2nnc3ccccn23)n1")
0.95
>>> readoutvalue("Cc1ccncc1NC(=O)CC(O)C1CC1 (configuration not stated)")
1.01
>>> readoutvalue("O=C(CC(=O)N1CCOCC1)NCc1ccccc1")
1
>>> readoutvalue("CN(C)C(=O)C[C@@H]1CN(C(=O)c2cnn3c2CCC3)c2ccc(Cl)cc21 (stereo in doubt)")
1
>>> readoutvalue("C#CCOc1ccc(N(C(=O)C=C)C(C(=O)NC(C)(C)C)c2cccnc2)cc1 (configuration not stated)")
1
>>> readoutvalue("COc1cc(CN2CCN(C(=O)CCl)CC2)c2ccccc2c1")
0.95
>>> readoutvalue("C=CC(=O)N(c1cc(C(C)(C)C)on1)C(C(=O)NCCc1cccc(F)c1)c1cccnc1 (configuration not stated)")
0.97
>>> readoutvalue("O=C(Nc1nncn1C1CC1)[C@@H]1CCOc2ccc(Cl)cc21 (stereo in doubt)")
0.99
>>> readoutvalue("O=C(Nc1ccccc1)Nc1cnc2ccc([N+](=O)[O-])cc2n1")
0.84
>>> readoutvalue("C=CC(=O)N1CCC(N(Cc2ccccc2C#N)C2CCC(O)CC2)CC1 (configuration not stated)")
0.99
>>> readoutvalue("O=C(CCl)N1CCN(C(c2ccccc2)C2CCCCC2)CC1 (configuration not stated)")
0.78
>>> readoutvalue("NC(=O)[C@@H]1CN(C2CCOCC2)C[C@H]1c1ccccc1 (stereo in doubt)")
1
